Test protocol: Acute oral toxicity (lethality) in mice
Applied conditions: mouse, in vivo, po
Measured endpoint: LD50 (mg/kg)
Value expressed in mg/kg; do not type the unit.

Query :: Returns the measured LD50 for the input molecule. Input: O=C1Nc2ccc(Cl)cc2C(c2ccccc2Cl)=NC1O (stereo not shown) [lorazepam]
Result :: 3180
